Source listed as the supplement of paper PMC11246515.

# Protocol summary: total protein half-life in vivo (active degradation + dilution); higher = more stable protein
# Run parameters: E. coli NCM3722 delta-smpB; growth: N-lim chemostat; doubling time 6 h
Mark -1 for total protein half-life in vivo values under 5 h, and 1 for everything at or above.

| Sequence | Class assignment |
| --- | --- |
| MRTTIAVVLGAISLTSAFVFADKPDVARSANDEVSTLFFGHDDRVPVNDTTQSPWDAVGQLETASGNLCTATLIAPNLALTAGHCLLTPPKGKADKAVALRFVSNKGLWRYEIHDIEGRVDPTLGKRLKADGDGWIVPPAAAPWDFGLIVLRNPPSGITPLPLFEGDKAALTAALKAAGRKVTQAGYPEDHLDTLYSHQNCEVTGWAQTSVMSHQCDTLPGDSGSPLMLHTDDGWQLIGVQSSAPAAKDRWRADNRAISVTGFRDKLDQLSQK | -1 |
| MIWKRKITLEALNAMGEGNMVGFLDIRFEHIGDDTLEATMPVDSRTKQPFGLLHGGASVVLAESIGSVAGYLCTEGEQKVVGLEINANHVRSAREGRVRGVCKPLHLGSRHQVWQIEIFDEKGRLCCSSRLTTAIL | -1 |
| MKKTAAIISACMLTFALSACSGSNYVMHTNDGRTIVSDGKPQTDNDTGMISYKDANGNKQQINRTDVKEMVELDQ | 1 |

Can `MEFFKKTALAALVMGFSGAALALPNITILATGGTIAGGGDSATKSNYTVGKVGVENLVNAVPQLKDIANVKGEQVVNIGSQDMNDNVWLTLAKKINTDCDKTDGFVITHGTDTMEETAYFLDLTVKCDKPVVMVGAMRPSTSMSADGPFNLYNAVVTAADKASANRGVLVVMNDTVLDGRDVTKTNTTDVATFKSVNYGPLGYIHNGKIDYQRTPARKHTSDTPFDVSKLNELPKVGIVYNYANASDLPAKALVDAGYDGIVSAGVGNGNLYKSVFDTLATAAKTGTAVVRSSRVPTGATTQDAEVDDAKYGFVASGTLNPQKARVLLQLALTQTKDPQQIQQIFNQY` be said to have total protein half-life in vivo at or above 5 h?
1

Can `MQQVFFQETEFLNSVIDYDHKVETENLCLDIAYGTDKNFLFGCGISIASILKYNEGSRLCFHIFTDYFGDDDRKYFDALALQYKTRIKIYLINGDRLRSLPSTKNWTHAIYFRFVIADYFINKAPKVLYLDADIICQGTIEPLINFSFPDDKVAMVVTEGQADWWEKRAHSLGVAGIAKGYFNSGFLLINTAQWAAQQVSARAIAMLNEPEIIKKITHPDQDVLNMLLADKLIFADIKYNTQFSLNYQLKESFINPVTNDTIFIHYIGPTKPWHDWAWDYPVSQAFMEAKNASPWKNTALLKPNNSNQLRYSAKHMLKKHRYLKGFSNYLFYFIEKIKH` be said to have total protein half-life in vivo at or above 5 h?
1

----------
# Protocol summary: total protein half-life in vivo (active degradation + dilution); higher = more stable protein
# Run parameters: wild type E. coli NCM3722; growth: C-lim chemostat; doubling time 6 h
Mark Not satisfied for total protein half-life in vivo values under 6 h, and Satisfied for everything at or above.

| Sequence | Class assignment |
| --- | --- |
| MNNMNVIIADDHPIVLFGIRKSLEQIEWVNVVGEFEDSTALINNLPKLDAHVLITDLSMPGDKYGDGITLIKYIKRHFPSLSIIVLTMNNNPAILSAVLDLDIEGIVLKQGAPTDLPKALAALQKGKKFTPESVSRLLEKISAGGYGDKRLSPKESEVLRLFAEGFLVTEIAKKLNRSIKTISSQKKSAMMKLGVENDIALLNYLSSVTLSPADKD [P0DMC7] | Not satisfied |
| MNMMRIFYIGLSGVGMMFSSMASGNDAGGLQSPACGVVCDPYICVNSDGISPELTRKYLGEKAAENLQSLQGYDPSEFTFANGVFCDVKEKLCRDDRYFGVDGKRSGKINQTTTKMLFMCRE | Not satisfied |

Can `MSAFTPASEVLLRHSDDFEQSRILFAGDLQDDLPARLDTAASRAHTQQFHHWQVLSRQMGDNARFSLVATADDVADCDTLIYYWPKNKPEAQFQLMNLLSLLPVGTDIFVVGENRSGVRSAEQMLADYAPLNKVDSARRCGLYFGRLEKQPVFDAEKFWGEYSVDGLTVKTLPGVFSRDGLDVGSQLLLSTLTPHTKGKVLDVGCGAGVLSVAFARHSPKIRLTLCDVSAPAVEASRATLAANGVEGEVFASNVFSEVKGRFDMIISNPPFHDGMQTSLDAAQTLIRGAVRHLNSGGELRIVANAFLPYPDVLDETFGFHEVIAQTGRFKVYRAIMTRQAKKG` be said to have total protein half-life in vivo at or above 6 h?
Satisfied

Can `MHINIAWQDVDTVLLDMDGTLLDLAFDNYFWQKLVPETWGAKNGVTPQEAMEYMRQQYHDVQHTLNWYCLDYWSEQLGLDICAMTTEMGPRAVLREDTIPFLEALKASGKQRILLTNAHPHNLAVKLEHTGLDAHLDLLLSTHTFGYPKEDQRLWHAVAEATGLKAERTLFIDDSEAILDAAAQFGIRYCLGVTNPDSGIAEKQYQRHPSLNDYRRLIPSLM` be said to have total protein half-life in vivo at or above 6 h?
Not satisfied

Can `MKLSRISAINWNKISDDKDLEVWNRLTSNFWLPEKVPLSNDIPAWQTLTVVEQQLTMRVFTGLTLLDTLQNVIGAPSLMPDALTPHEEAVLSNISFMEAVHARSYSSIFSTLCQTKDVDAAYAWSEENAPLQRKAQIIQQHYRGDDPLKKKIASVFLESFLFYSGFWLPMYFSSRGKLTNTADLIRLIIRDEAVHGYYIGYKYQKNMEKISLGQREELKSFAFDLLLELYDNELQYTDELYAETPWADDVKAFLCYNANKALMNLGYEPLFPAEMAEVNPAILAALSPNADENHDFFSGSGSSYVMGKAVETEDEDWNF` be said to have total protein half-life in vivo at or above 6 h?
Not satisfied

Can MNLSTKQKQHLKGLAHPLKPVVLLGSNGLTEGVLAEIEQALEHHELIKVKIATEDRETKTLIVEAIVRETGACNVQVIGKTLVLYRPTKERKISLPR [P0AGK4] be said to have total protein half-life in vivo at or above 6 h?
Not satisfied

----------
# Protocol summary: total protein half-life in vivo (active degradation + dilution); higher = more stable protein
# Run parameters: E. coli NCM3722 delta-smpB; growth: N-lim chemostat; doubling time 6 h
List of total protein half-life in vivo values.
Please reply with the bare figure in h and do not write the unit itself.

| Sequence | Display unit | Meas value |
| --- | --- | --- |
| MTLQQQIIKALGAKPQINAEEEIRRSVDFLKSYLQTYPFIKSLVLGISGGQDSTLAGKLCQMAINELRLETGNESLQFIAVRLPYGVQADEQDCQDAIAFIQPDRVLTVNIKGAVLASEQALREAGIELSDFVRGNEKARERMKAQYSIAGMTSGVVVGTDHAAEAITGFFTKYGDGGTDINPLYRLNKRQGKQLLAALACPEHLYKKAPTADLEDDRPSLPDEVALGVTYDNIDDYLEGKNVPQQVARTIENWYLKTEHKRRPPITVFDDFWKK | h | 4.58 |

The reported total protein half-life in vivo of the sequence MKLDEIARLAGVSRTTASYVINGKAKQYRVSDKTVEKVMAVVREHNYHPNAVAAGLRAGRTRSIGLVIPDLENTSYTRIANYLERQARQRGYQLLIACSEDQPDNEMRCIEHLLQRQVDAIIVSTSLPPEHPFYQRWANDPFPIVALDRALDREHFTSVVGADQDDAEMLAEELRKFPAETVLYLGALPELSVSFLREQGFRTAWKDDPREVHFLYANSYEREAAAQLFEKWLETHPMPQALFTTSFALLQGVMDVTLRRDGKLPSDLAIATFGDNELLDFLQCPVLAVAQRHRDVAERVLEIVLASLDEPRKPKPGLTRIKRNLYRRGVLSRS [P0ACP1] was 5.16

----------
# Protocol summary: total protein half-life in vivo (active degradation + dilution); higher = more stable protein
# Run parameters: wild type E. coli NCM3722; growth: C-lim chemostat; doubling time 12 h
List of total protein half-life in vivo values.
Please reply with the bare figure in h and do not write the unit itself.

Please review the entries below; each comes with its answer.
| Sequence | total protein half-life in vivo / h |
| --- | --- |
| MKLTTHHLRTGAALLLAGILLAGCDQSSSDAKHIKVGVINGAEQDVAEVAKKVAKEKYGLDVELVGFSGSLLPNDATNHGELDANVFQHRPFLEQDNQAHGYKLVAVGNTFVFPMAGYSKKIKTVAQIKEGATVAIPNDPTNLGRALLLLQKEKLITLKEGKGLLPTALDITDNPRHLQIMELEGAQLPRVLDDPKVDVAIISTTYIQQTGLSPVHDSVFIEDKNSPYVNILVAREDNKNAENVKEFLQSYQSPEVAKAAETIFNGGAVPGW | 10.7 |
| MMKNILAIQSHVVYGHAGNSAAEFPMRRLGANVWPLNTVQFSNHTQYGKWTGCVMPPSHLTEIVQGIAAIDKLHTCDAVLSGYLGSAEQGEHILGIVRQVKAANPQAKYFCDPVMGHPEKGCIVAPGVAEFHVRHGLPASDIIAPNLVELEILCEHAVNNVEEAVLAARELIAQGPQIVLVKHLARAGYSRDRFEMLLVTADEAWHISRPLVDFGMRQPVGVGDVTSGLLLVKLLQGATLQEALEHVTAAVYEIMVTTKAMQEYELQVVAAQDRIAKPEHYFSATKL | 5.86 |
| MSDERYQQRQQRVKEKVDARVAQAQDERGIIIVFTGNGKGKTTAAFGTATRAVGHGKKVGVVQFIKGTWPNGERNLLEPHGVEFQVMATGFTWDTQNRESDTAACREVWQHAKRMLADSSLDMVLLDELTYMVAYDYLPLEEVVQALNERPHQQTVIITGRGCHRDILELADTVSELRPVKHAFDAGVKAQIGIDY [P0A9H5] | 9.56 |

The reported total protein half-life in vivo of the sequence `MENLARFLSTTLKQLRQQRGWSLSRLAEATGVSKAMLGQIERNESSPTVATLWKIATGLNVPFSTFISPPQSATPSVYDPQQQAMVITSLFPYDPQLCFEHFSIQMASGAISESTPHEKGVIEHVVVIDGQLDLCVDGEWQTLNCGEGVRFAADVTHIYRNGGEQTVHFHSLIHYPRS` was 10.1

The reported total protein half-life in vivo of the sequence `MIKLSNITKVFHQGTRTIQALNNVSLHVPAGQIYGVIGASGAGKSTLIRCVNLLERPTEGSVLVDGQELTTLSESELTKARRQIGMIFQHFNLLSSRTVFGNVALPLELDNTPKDEVKRRVTELLSLVGLGDKHDSYPSNLSGGQKQRVAIARALASNPKVLLCDEATSALDPATTRSILELLKDINRRLGLTILLITHEMDVVKRICDCVAVISNGELIEQDTVSEVFSHPKTPLAQKFIQSTLHLDIPEDYQERLQAEPFTDCVPMLRLEFTGQSVDAPLLSETARRFNVNNNIISAQMDYAGGVKFGIMLTEMHGTQQDTQAAIAWLQEHHVKVEVLGYV` was 9.68

The reported total protein half-life in vivo of the sequence MENYLIDNLDRGILEALMGNARTAYAELAKQFGVSPGTIHVRVEKMKQAGIITGARIDVSPKQLGYDVGCFIGIILKSAKDYPSALAKLESLDEVTEAYYTTGHYSIFIKVMCRSIDALQHVLINKIQTIDEIQSTETLIVLQNPIMRTIKP [P0ACI6] was 11.4

The reported total protein half-life in vivo of the sequence `MKRVLFFLLMIFVSFGVIADCEIQAKDHDCFTIFAKGTIFSAFPVLNNKAMWRWYQNEDIGEYYWQTELGTCKNNKFTPSGARLLIRVGSLRLNENHAIKGTLQELINTAEKTAFLGDRFRSYIRAGIYQKKSSDPVQLLAVLDNSIMVKYFKDEKPTYARMTAHLPNKNESYECLIKIQHELIRSEEK` was 10.3

The reported total protein half-life in vivo of the sequence `MSTLRLLISDSYDPWFNLAVEECIFRQMPATQRVLFLWRNADTVVIGRAQNPWKECNTRRMEEDNVRLARRSSGGGAVFHDLGNTCFTFMAGKPEYDKTISTSIVLNALNALGVSAEASGRNDLVVKTVEGDRKVSGSAYRETKDRGFHHGTLLLNADLSRLANYLNPDKKKLAAKGITSVRSRVTNLTELLPGITHEQVCEAITEAFFAHYGERVEAEIISPNKTPDLPNFAETFARQSSWEWNFGQAPAFSHLLDERFTWGGVELHFDVEKGHITRAQVFTDSLNPAPLEALAGRLQGCLYRADMLQQECEALLVDFPEQEKELRELSAWMAGAVR` was 11

The reported total protein half-life in vivo of the sequence `MAGESFILMGVSGSGKTLIGSKVAALLSAKFIDGDDLHPAKNIDKMSQGIPLSDEDRLPWLERLNDASYSLYKKNETGFIVCSSLKKQYRDILRKGSPHVHFLWLDGDYETILARMQRRAGHFMPVALLKSQFEALERPQADEQDIVRIDINHDIANVTEQCRQAVLAIRQNRICAKEGSASDQRCE` was 3.67

The reported total protein half-life in vivo of the sequence `MQEYTNHSDTTFALRNISFRVPGRTLLHPLSLTFPAGKVTGLIGHNGSGKSTLLKMLGRHQPPSEGEILLDAQPLESWSSKAFARKVAYLPQQLPPAEGMTVRELVAIGRYPWHGALGRFGAADREKVEEAISLVGLKPLAHRLVDSLSGGERQRAWIAMLVAQDSRCLLLDEPTSALDIAHQVDVLSLVHRLSQERGLTVIAVLHDINMAARYCDYLVALRGGEMIAQGTPAEIMRGETLEMIYGIPMGILPHPAGAAPVSFVY` was 11.4

The reported total protein half-life in vivo of the sequence MTISELLQYCMAKPGAEQSVHNDWKATQIKVEDVLFAMVKEVENRPAVSLKTSPELAELLRQQHSDVRPSRHLNKAHWSTVYLDGSLPDSQIYYLVDASYQQAVNLLPEEKRKLLVQL [P0AF50] was 7.14

The reported total protein half-life in vivo of the sequence `MEKYLHLLSRGDKIGLTLIRLSIAIVFMWIGLLKFVPYEADSITPFVANSPLMSFFYEHPEDYKQYLTHEGEYKPEARAWQTANNTYGFSNGLGVVEVIIALLVLANPVNRWLGLLGGLMAFTTPLVTLSFLITTPEAWVPALGDAHHGFPYLSGAGRLVLKDTLMLAGAVMIMADSAREILKQRSNESSSTLKTEY` was 12.5

The reported total protein half-life in vivo of the sequence `MSIRFARKADCAAIAEIYNHAVLYTAAIWNDQTVDADNRIAWFEARTLAGYPVLVSEENGVVTGYASFGDWRSFDGFRHTVEHSVYVHPDHQGKGLGRKLLSRLIDEARDCGKHVMVAGIESQNQASLHLHQSLGFVVTAQMPQVGTKFGRWLDLTFMQLQLDERTEPDAIG` was 10.1
